# Target: T1, cynomolgus IL-36α, truncated (cynomolgus macaque (Macaca fascicularis), UniProt Q9UHA7 14-158 (human entry), limits assumed)
# T1 construct: Untagged after removal of the His-SUMO tag; also called cynomolgus IL-36 alpha; cyIL-36alpha
# T1 chain: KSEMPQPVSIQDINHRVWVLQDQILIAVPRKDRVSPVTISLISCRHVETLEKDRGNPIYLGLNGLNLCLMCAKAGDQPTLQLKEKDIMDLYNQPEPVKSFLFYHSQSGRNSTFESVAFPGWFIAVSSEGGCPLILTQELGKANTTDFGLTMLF
# Procedure Details: SPR, Biacore, 1:1 Langmuir fit; heads of c3 and c4 printed swapped
Measurement Name: koff (s⁻¹)
Unit s⁻¹ implied. Number only.

Field: example entries. Status: answers known.
Binder	koff (s⁻¹)
144L249B LV9 HV10c (antibody, V domains shown, Humanized) VH: QVQLVQSGAEVKKPGASVKVSCKASGFNIKDTYIYWVRQAPGQGLEWIGRIDPAIGTTRYDPKFQGKATLTADTSTNTAYLELSSLRSEDTAVYYCARYDYSGSSFYFDYWGQGTLVTVSS VL: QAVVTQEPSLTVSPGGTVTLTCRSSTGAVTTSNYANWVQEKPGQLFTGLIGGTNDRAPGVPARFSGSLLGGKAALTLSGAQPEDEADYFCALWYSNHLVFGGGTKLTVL	0.00103
144L249B LV7a HV11 (antibody, V domains shown, Humanized) VH: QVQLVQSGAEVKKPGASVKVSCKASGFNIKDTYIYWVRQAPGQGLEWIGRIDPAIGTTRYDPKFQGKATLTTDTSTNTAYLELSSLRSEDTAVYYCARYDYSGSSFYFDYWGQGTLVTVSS VL: QAVVTQEPSLTVSPGGTVTLTCRSSTGAVTTSNYANWVQQKPGQAFTGLIGGTNDRAPGVPARFSGSLLGGKAALTISGAQPEDEADYFCALWYSNHLVFGGGTKLTVL	0.0014
144L249B (antibody, V domains shown, Mouse monoclonal from hybridoma; mouse IgG heavy and lambda light chain; also called mouse antibody 144L249B) VH: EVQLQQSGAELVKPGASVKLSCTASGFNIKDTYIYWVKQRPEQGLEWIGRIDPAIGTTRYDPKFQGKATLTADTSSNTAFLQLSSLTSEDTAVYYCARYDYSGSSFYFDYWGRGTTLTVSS VL: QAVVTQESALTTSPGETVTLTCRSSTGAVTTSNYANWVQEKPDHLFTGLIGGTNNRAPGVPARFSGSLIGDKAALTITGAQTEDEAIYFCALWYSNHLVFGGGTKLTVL	0.00105

Would you kindly look at the next entry?
Bench note: what koff did 144D464A LV7a HV10b (antibody, V domains shown, Humanized; also called humanized 144D464A antibody LV7a HV10b) VH: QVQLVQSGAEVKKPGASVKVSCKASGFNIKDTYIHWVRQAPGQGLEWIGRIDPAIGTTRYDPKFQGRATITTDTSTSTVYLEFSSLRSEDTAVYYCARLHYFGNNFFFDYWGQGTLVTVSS VL: QAVVTQEPSLTVSPGGTVTLTCRSSSGAVTTSNYANWVQQKPGQAFAGLIGGTNDRAPGVPARFSGSLLGGKAALTISGAQPEDEADYFCALWFSNHWVFGGGTKLTVL show? 0.000451
